# Measurement Target: T1, cynomolgus monkey BCMA (cynomolgus monkey, UniProt A0A2K5UD97 1-53)
# T1 construct: Soluble analyte in SPR; construct not described; also called cyBCMA; Cyno BCMA
# T1 sequence (A0A2K5UD97 entry or part of it): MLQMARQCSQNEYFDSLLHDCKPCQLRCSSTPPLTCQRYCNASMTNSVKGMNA
# Protocol Description: SPR, IgG on chip, cyBCMA analyte, 37C
Measured Quantity: kon (M⁻¹ s⁻¹)
Unit M⁻¹ s⁻¹ implied. Number only.

### Prompt Look up and state reported kon for L3.PY/L3.KY/H2.YQ (antibody, V domains shown, IgG) VH: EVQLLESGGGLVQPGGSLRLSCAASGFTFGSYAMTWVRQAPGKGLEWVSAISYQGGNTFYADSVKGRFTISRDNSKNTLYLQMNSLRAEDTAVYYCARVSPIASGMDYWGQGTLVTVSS VL: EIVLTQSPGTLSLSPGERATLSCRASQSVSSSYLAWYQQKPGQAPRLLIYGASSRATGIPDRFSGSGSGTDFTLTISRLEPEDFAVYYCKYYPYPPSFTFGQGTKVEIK
### Response 1.27e+06
